Catalogue of sequences with associated shrunken log2 fold change
# Tested on: Escherichia coli TOP10;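 further: peptides expressed intracellularly from a pBAD plasmid library in pooled LB shake-flask culture, induced with 0.3% L-arabinose, DNA abundance read by NGS, three biological replicates, DESeq2 with apeglm shrinkage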
# assayDetails: shrunken log2 fold change of peptide-encoding DNA abundance (4.5 h post-induction vs induction); higher = less antimicrobial activity (less host growth inhibition)
# assayConditions: time post-induction: 4.5 h; library: site-saturation at positions 5, 18, 19, 20
Give only the figure.

Reference set (5 entries):
RRIRNRPPRLPRPRPRPWIVPRP; 0.0724
RRIRLRPPRLPRPRPRPKIVPRP; -0.142
RRIRRRPPRLPRPRPRPLWGPRP; 0.0229
RRIRARPPRLPRPRPRPPLYPRP; 0.606
RRIRDRPPRLPRPRPRPFLGPRP; -0.0161

Next, consider the following sequence.
Prompt: Please look up its shrunken log2 fold change: "RRIRVRPPRLPRPRPRPNYTPRP"
Response: -0.533
